In this section we review reported pKd values for a set of binders.
# systemName: T1, Recombinant human B7-H3 extracellular domain protein (UniProtKB-Q5ZPR3, amino acids 1-461, C-His tag) (human, UniProt Q5ZPR3 29-461)
# T1 construct: range 1-461; The printed range 1-461 starts at residue 1 and so covers the signal peptide; also called human B7-H3 ECD-His; recombinant human B7-H3 ECD protein; not shown: C-terminal His tag
# T1 sequence (looked up): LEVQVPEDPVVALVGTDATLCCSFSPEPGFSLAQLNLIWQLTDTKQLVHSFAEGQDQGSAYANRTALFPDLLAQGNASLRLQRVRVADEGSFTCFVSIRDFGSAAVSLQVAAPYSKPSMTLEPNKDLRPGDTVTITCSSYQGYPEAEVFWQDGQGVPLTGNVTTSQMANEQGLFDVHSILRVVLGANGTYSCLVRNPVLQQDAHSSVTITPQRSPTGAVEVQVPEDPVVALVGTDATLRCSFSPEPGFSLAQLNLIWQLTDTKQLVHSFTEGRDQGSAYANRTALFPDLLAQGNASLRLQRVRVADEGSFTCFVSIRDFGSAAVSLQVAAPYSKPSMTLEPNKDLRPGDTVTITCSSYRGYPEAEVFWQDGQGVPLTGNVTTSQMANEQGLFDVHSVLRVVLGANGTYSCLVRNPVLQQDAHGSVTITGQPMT
# assayText: BLI (ForteBio Octet QKe), antibody on AHC probes, 60 nM antigen, 1:1 Langmuir fit
pKd: −log10 of the molar value.
assayEndpoint: pKd

hz10B4m2 (antibody, V domains shown, LCDR3 variant of hz10B4 (SSN→SAS); also called hz10B4-VH×hz10B4-Lm2-VL) VH: EVQLVQSGAEVKKPGASVKVSCKASGYTFTEYIMHWVRQAPGQGLEWMGGINPASGGTTYNQKFKGRVTMTRDTSISTAYMELSRLRSEDTAVYYCARKGKDYFDWYFDVWGQGTTVTVSS VL: DIQLTQSPSSLSASVGDRVTMTCSASSSVSYMHWYQQKPGKAPKLLIYDTSKLASGVPSRFSGSGSGTDFTLTISSLQPEDFATYYCQQWSASPLTFGGGTKVEIK | 9.42
hz10B4m4 (antibody, V domains shown, LCDR3 variant of hz10B4 (SSN→SSG); also called hz10B4-VH×hz10B4-Lm4-VL) VH: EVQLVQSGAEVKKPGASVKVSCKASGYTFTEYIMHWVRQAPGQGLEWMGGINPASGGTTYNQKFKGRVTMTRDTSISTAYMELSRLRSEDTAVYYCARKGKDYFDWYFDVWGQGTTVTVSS VL: DIQLTQSPSSLSASVGDRVTMTCSASSSVSYMHWYQQKPGKAPKLLIYDTSKLASGVPSRFSGSGSGTDFTLTISSLQPEDFATYYCQQWSSGPLTFGGGTKVEIK | 9.08
hz10B4m1 (antibody, V domains shown, LCDR3 variant of hz10B4 (SSN→SSA); also called hz10B4-VH×hz10B4-Lm1-VL) VH: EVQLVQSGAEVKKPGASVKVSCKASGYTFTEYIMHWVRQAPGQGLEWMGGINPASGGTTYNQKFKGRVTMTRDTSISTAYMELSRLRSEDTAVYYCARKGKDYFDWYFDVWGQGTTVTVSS VL: DIQLTQSPSSLSASVGDRVTMTCSASSSVSYMHWYQQKPGKAPKLLIYDTSKLASGVPSRFSGSGSGTDFTLTISSLQPEDFATYYCQQWSSAPLTFGGGTKVEIK | 9.45
hz10B4m5 (antibody, V domains shown, LCDR3 variant of hz10B4 (SSN→SGS); also called hz10B4-VH×hz10B4-Lm5-VL) VH: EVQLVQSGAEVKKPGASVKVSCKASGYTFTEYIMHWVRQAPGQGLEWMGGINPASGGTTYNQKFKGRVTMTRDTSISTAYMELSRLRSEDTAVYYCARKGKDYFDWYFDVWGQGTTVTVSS VL: DIQLTQSPSSLSASVGDRVTMTCSASSSVSYMHWYQQKPGKAPKLLIYDTSKLASGVPSRFSGSGSGTDFTLTISSLQPEDFATYYCQQWSGSPLTFGGGTKVEIK | 9.25
